# credit: ChEMBL document CHEMBL5380844

ASSAY: Inhibition of ND1 transcript level in human A2780 cells at 500 nM measured after 12 hrs by RT-qPCR analysis relative to control
Type: functional
METRIC: inhibition at 0.5 µM (%)
Your answer is read as %, so omit the unit and give the number.

Answered examples (10):
C[C@@H](Oc1ccc2c(-c3ccc(F)cc3Cl)coc2c1)C(=O)N1CCC[C@H](C(=O)O)C1 = 105
C[C@@H](Oc1ccc2c(-c3ccc(F)cc3)cc(=O)oc2c1)C(=O)N1CC2CCC(C1)N2 = 44
C[C@@H](CO)NC(=O)[C@@H](C)Oc1ccc2c(-c3ccc(F)cc3Cl)cc(=O)oc2c1 = 32
C[C@@H](Oc1ccc2c(ccn2-c2ccc(F)cc2Cl)c1)C(=O)N1CCC[C@H](C(=O)O)C1 = 97
C[C@@H](Oc1ccc2c(-c3ccc(F)cc3Cl)cc(=O)oc2c1)C(=O)NCc1ccco1 = 41
O=C(O)[C@H]1CCCN(C(=O)COc2ccc3c(-c4ccc(F)cc4Cl)cc(=O)oc3c2)C1 = 39
O=C(O)[C@H]1CCCN(C(=O)C(F)(F)Oc2ccc3c(-c4ccc(F)cc4Cl)cc(=O)oc3c2)C1 = 37
C[C@@H](Oc1ccc2c(-c3ccsc3)cc(=O)oc2c1)C(=O)N1CC2CCC(C1)N2 = 24
C[C@@H](Oc1ccc2c(C34C[C@H]5C[C@H](C3)C[C@@H](C4)C5)cc(=O)oc2c1)C(=O)N1CC2CCC(C1)N2 = 22
Cc1ccc(-c2cc(=O)oc3cc(O[C@H](C)C(=O)N4CC5CCC(C4)N5)ccc23)c(C)c1 = 7

# compound C[C@@H](Oc1ccc2c(-c3cc4ccccc4s3)cc(=O)oc2c1)C(=O)N1CC2CCC(C1)N2 ; its inhibition at 0.5 µM = 85

# compound C[C@@H](Oc1ccc(C(=O)c2ccc(F)cc2Cl)cc1)C(=O)N1CCC[C@H](C(=O)O)C1 ; its inhibition at 0.5 µM = 99

# compound C[C@@H](Oc1ccc2c(-c3ccc(F)cc3Cl)ncnc2c1)C(=O)N1CCC[C@H](C(=O)O)C1 ; its inhibition at 0.5 µM = 93

# compound C[C@@H](Oc1ccc2c(-c3ccc(F)cc3Cl)cc(=O)oc2c1)C(=O)N1CCOCC1 ; its inhibition at 0.5 µM = 25

# compound CC(=O)NCCNC(=O)[C@@H](C)Oc1ccc2c(-c3ccc(F)cc3Cl)cc(=O)oc2c1 ; its inhibition at 0.5 µM = 26

# compound C[C@@H](Oc1ccc2c(-c3ccc(F)cc3Cl)cc(=O)oc2c1)C(=O)N1CCSCC1 ; its inhibition at 0.5 µM = 34
